B1: Rubredoxin, P00268 (parent)
chain: MKKYTCTVCGYIYNPEDGDPDNGVNPGTDFKDIPDDWVCPLCGVGKDQFEEVEE

Variants of: B1
Details: Clostridium pasteurianum; pH 9.08; Thermal; NMR; Sodium borate 100 mM; reversible: Yes; structure 1IRO; whole UniProt chain shown
endpoint: unfolding enthalpy (van 't Hoff) (kcal/mol)
The response must be a number in kcal/mol with no trailing unit.

Recorded results for 3 variants are shown here.
Report measured unfolding enthalpy (van 't Hoff); entry is I33L
64

Report measured unfolding enthalpy (van 't Hoff); entry is V24I I33L
65

Report measured unfolding enthalpy (van 't Hoff); entry is V24I
59

Next:
Report measured unfolding enthalpy (van 't Hoff); entry is Y4W V24I I33L
63
